Cited source: PubChem BioAssay (NCI)

# Test system: SF-268 CNS
# Assay details: NCI tumour cell line growth inhibition, 48 h
Quantity measured: GI50

Some solved entries appear below for comparison.
[[record]]
molecule = "C[CH2][Sn]([CH2]C)([O]C(=O)c1cccc(F)c1)[O][Sn]([CH2]C)([CH2]C)[O]C(=O)c1cccc(F)c1"
quantity_measured = "GI50"
endpoint_result = "17.9 µM"

[[record]]
molecule = "O=Cc1ccc(O)c2ncccc12"
quantity_measured = "GI50"
endpoint_result = "2.65 µM"


# per-item lookup of GI50; items listed below
1. C[CH2][Sn]([Cl])([Cl])[CH2]C
2. CC1=C(C(=O)Nc2ccc(F)c(Cl)c2)C(c2cccc(Oc3ccccc3)c2)NC(=O)N1 (stereo unspecified)
3. CCCN(CCC)C(=O)[C@H](CC)[C@@H]1CC[C@@H](C)[C@@H]([C@H](C)[C@@H](O)[C@@H](C)C(=O)[C@H](CC)C2O[C@]3(C=C[C@@H](O)[C@]4(CC[C@@](C)([C@H]5CC[C@](O)(CC)[C@H](C)O5)O4)O3)[C@H](C)C[C@@H]2C)O1 (stereo partly specified)
4. CCCCCCCCCCCC[n+]1ccc(C(N)=O)cc1

Response:
29.7 µM
15.6 µM
3.43 µM
2.78 µM

----------
# System: SF-295 CNS
# Assay details: NCI tumour cell line growth inhibition, 48 h
So I've got a bunch of molecules here, and I need their TGI values.

[[record]]
molecule = "c1ccc2c3c([nH]c2c1)C1(CCCCC1)c1c([nH]c2ccccc12)C31CCCCC1"
subject_of_test = "SF-295 CNS"
quantity_measured = "TGI"
endpoint_result = "56.8 µM"

[[record]]
molecule = "Cc1cc(C)c(NS(=O)c2cccc(Cl)c2)c(C)c1 (stereo not given)"
subject_of_test = "SF-295 CNS"
quantity_measured = "TGI"
endpoint_result = "> 100 µM"

[[record]]
molecule = "C[CH2][Sn]([Cl])([Cl])[CH2]C"
subject_of_test = "SF-295 CNS"
quantity_measured = "TGI"
endpoint_result = "> 100 µM"


# return TGI for each item in the list
1. CCOC(=O)C#Cc1c(CC(=O)OCC)nnn1[C@H]1O[C@@H](CO)[C@@H]2OC(C)(C)O[C@@H]21
2. COc1cc(/C=C/C(=O)c2c(C)n([O-])c3ccc(Cl)cc3[n+]2=O)cc(OC)c1OC

Response:
["> 100 µM", "> 100 µM"]

----------
# Test system: HT29 colon
# Assay details: NCI tumour cell line growth inhibition, 48 h; in the data active means GI50 below about 0.43 µM; inactive means the rest
Would you mind answering with one of these outcomes? active, inactive

Query: Assay outcome for COc1ccc(/C=C/C(=O)c2cc3c(N)c(C(=O)Nc4ccccc4)sc3nc2C)cc1 : what was it?
Response: active

----------
# System: MDA-MB-231 breast
# Assay details: NCI tumour cell line growth inhibition, 48 h
Hi there, I'd appreciate the recorded TGI for every entry that follows.
One number for each entry, in µM.

Consider the following illustrative entries.
[[record]]
structure_string = "O=C(N/N=C\\c1ccc(N(CCCl)CCCl)cc1Cl)c1cccnc1"
endpoint_result = 62.3

[[record]]
structure_string = "CN1CCN(CCCCN2c3ccccc3Sc3ccc(N=[N+]=[N-])cc32)CC1"
endpoint_result = 15

[[record]]
structure_string = "CCCCc1ccc(Nc2nc(N)c3ncn(COCCO)c3n2)cc1"
endpoint_result = 76.7


Query: Give recorded TGI. CN1CCn2c(c(Sc3ccc(C(=O)NO)cc3)c3ccccc32)C1=O
Response: 5.09

----------
# Test system: SF-295 CNS
# Assay details: NCI tumour cell line growth inhibition, 48 h
Quantity measured: GI50

[[record]]
compound = "CC1=C(C(=O)Nc2ccc(F)c(Cl)c2)C(c2cccc(Oc3ccccc3)c2)NC(=O)N1 (stereo not given)"
subject_of_test = "SF-295 CNS"
endpoint_result = "22.1 µM"

[[record]]
compound = "COC(=O)c1cc2oc(/C=C3\\SC(=S)N(NC(C)=O)C3=O)cc2n1Cc1ccccc1"
subject_of_test = "SF-295 CNS"
endpoint_result = "2.11 µM"

[[record]]
compound = "COc1ccc2c(c1)OC(N)=C(C#N)C2c1ccc(F)cc1 (stereo not given)"
subject_of_test = "SF-295 CNS"
endpoint_result = "1.96 µM"

[[record]]
compound = "C=C1C(=O)O[C@H]2[C@H]1CC/C(CNS(=O)(=O)c1cccc3ccccc13)=C\\CC[C@@]1(C)O[C@@H]21"
subject_of_test = "SF-295 CNS"
endpoint_result = "5.49 µM"

[[record]]
compound = "CCCN(CCC)C(=O)[C@H](CC)[C@@H]1CC[C@@H](C)[C@@H]([C@H](C)[C@@H](O)[C@@H](C)C(=O)[C@H](CC)C2O[C@]3(C=C[C@@H](O)[C@]4(CC[C@@](C)([C@H]5CC[C@](O)(CC)[C@H](C)O5)O4)O3)[C@H](C)C[C@@H]2C)O1 (stereo not given in full)"
subject_of_test = "SF-295 CNS"
endpoint_result = "2.45 µM"

[[record]]
compound = "C=CC(=O)Nc1cccc(C)c1Nc1ncc2cc(-c3c(Cl)c(OC)cc(OC)c3Cl)ccc2n1"
subject_of_test = "SF-295 CNS"
endpoint_result = "3.26 µM"


For each of the compounds below, state GI50.
1. COc1ccc2nc(C)cc(Nc3ccccc3O)c2c1
2. OC(CNC1CCCC1)Cn1c2ccccc2c2ccccc21 (stereo not given)
3. O=C(CCCCCCC(=O)Nc1ccc2c(c1)/C(=C/c1ccc[nH]1)C(=O)N2)NO
4. N#Cc1nc2cc(F)c(F)cc2nc1-c1ccc(Cl)cc1

Response:
1: 24.5 µM; 2: 23.7 µM; 3: 1.3 µM; 4: 12.2 µM

----------
# Tested on: NCI-H522 lung
# Assay details: NCI tumour cell line growth inhibition, 48 h
Please provide measured TGI for the entries that follow.
Answers are plain numbers, in µM.

Some compounds with known TGI results, for comparison:
[[record]]
compound = "COc1cc2cccc(NC(=O)c3cc(OC)c(OC)c(OC)c3Br)c2cc1OC"
quantity_measured = "TGI"
display_unit = "µM"
endpoint_result = 42.1

[[record]]
compound = "CCOc1ccccc1NC(=O)C1=C(C)NC(C)=C(C(=O)Nc2ccccc2OCC)C1c1ccc(NC(C)=O)cc1"
quantity_measured = "TGI"
display_unit = "µM"
endpoint_result = 23.6

[[record]]
compound = "O=C(CC(C(=O)c1cccs1)c1ccsc1)c1ccco1 (stereo unspecified)"
quantity_measured = "TGI"
display_unit = "µM"
endpoint_result = 54.1

[[record]]
compound = "O=C(NCCN1CCCC1)c1cn2c(ccc3sc4ccccc4c(=O)c32)n1"
quantity_measured = "TGI"
display_unit = "µM"
endpoint_result = 27.4

[[record]]
compound = "CCCCCCCCCCCC[n+]1ccc(C(N)=O)cc1"
quantity_measured = "TGI"
display_unit = "µM"
endpoint_result = 8.38


Take each entry in turn and give its TGI.
1. COc1cc(/C=C2/C(=O)NC(Cc3cc(OC)c(OC)c(C)c3OC)C(=O)N2Cc2ccccc2)c(OC)c(C)c1OC (stereo unspecified)
2. Cc1ccc(/C(O)=C/c2nc3ccccc3[nH]c2=O)c(C)c1

Response:
60.2
38.4

Query: Write down TGI measured for item CC(C)(C)N(Cc1ccoc1)C(=O)/C=C\S(=O)c1ccccc1 (stereo unspecified)
Response: 40.5

----------
For each entry below, report its GI50 value.
# Tested on: SW-620 colon
# Assay details: NCI tumour cell line growth inhibition, 48 h

[[record]]
molecule = "N#Cc1nc2cc(F)c(F)cc2nc1-c1ccc(Cl)cc1"
quantity_measured = "GI50"
endpoint_result = "16000 nM"


Go through the items and report each one's GI50.
1. COc1ccc2c(c1)OC(N)=C(C#N)C2c1ccc(F)cc1 (stereo not drawn)
2. CN(C)CCNC(=O)c1cc2c3ccccc3[nH]c2c2ncccc12
3. N#CC1=C(N)Oc2c(sc3c(F)cccc23)C1c1ccc(F)cc1 (stereo not drawn)
4. O=C(/C=C/c1ccc(C(F)(F)F)cc1)c1ccc(Nc2nc(NCCO)nc(N3CCOCC3)n2)cc1
5. Oc1ccc(N=Nc2ccc(N=Nc3ccccc3)cc2)cc1
6. COc1cccc2c(=O)c3c(sc12)c(NCCN(C)C)nc1ccccc13

Response:
1. 533 nM
2. 4240 nM
3. 531 nM
4. 1920 nM
5. 1510 nM
6. 760 nM

Query: Given C=C1C(=O)O[C@H]2[C@H]1CC/C(CNS(=O)(=O)c1cccc3ccccc13)=C\CC[C@@]1(C)O[C@@H]21 , respond with its GI50.
Response: 713 nM

----------
Would you kindly list TGI for each of these compounds?
# System: EKVX NSCLC
# Assay details: NCI tumour cell line growth inhibition, 48 h

[[record]]
compound = "OC(CNC1CCCC1)Cn1c2ccccc2c2ccccc21 (stereo unspecified)"
subject_of_test = "EKVX NSCLC"
endpoint_result = "> 100 µM"

[[record]]
compound = "O=C(N/N=C\\c1ccc(N(CCCl)CCCl)cc1Cl)c1cccnc1"
subject_of_test = "EKVX NSCLC"
endpoint_result = "> 83.6 µM"

[[record]]
compound = "COc1ccc2nc3ccc(OC)cc3c(SCC3CO3)c2c1 (stereo unspecified)"
subject_of_test = "EKVX NSCLC"
endpoint_result = "34.2 µM"

[[record]]
compound = "COc1cc(C(=O)CC2(O)C(=O)Nc3c(Cl)cc(Cl)cc32)ccc1O (stereo unspecified)"
subject_of_test = "EKVX NSCLC"
endpoint_result = "> 100 µM"

[[record]]
compound = "CN(C)CCCNc1ccc2nnn3c4ccc(OC(=O)c5ccc([N+](=O)[O-])cc5)cc4c(=O)c1c23"
subject_of_test = "EKVX NSCLC"
endpoint_result = "25.1 µM"


# per-item lookup of TGI; items listed below
1. COc1cc(/C=C2\CC3C4CC[C@H]5C[C@@H](O)CC[C@]5(C)C4CC[C@]3(C)C2=O)cc(OC)c1OC (stereo partly specified)
2. Nc1nc(Cl)cc(NCCCCCCCCCCCCNc2cc(Cl)nc(N)n2)n1
3. COc1ccc(NS(=O)c2ccc(OC)cc2)cc1 (stereo unspecified)
4. COc1cc(C2c3cc4c(cc3OC(NCc3ccccc3)C2C)OCO4)cc(OC)c1OC (stereo unspecified)

Response:
["> 100 µM", "> 100 µM", "> 100 µM", "> 100 µM"]
